Record form. Attribute: normalized RNA/DNA level with ligand (log10). Fill in for each entry.
B1: library; a variant is named by its letters at N, in order (parent)
chain: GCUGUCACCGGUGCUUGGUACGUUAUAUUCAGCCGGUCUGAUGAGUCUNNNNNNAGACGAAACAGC

Variants of: B1
protocol_description: normalized RNA/DNA level with ligand (relative to sTRSVctl = 100) (log10 (% of sTRSVctl)); HEK293T overexpressing SLC46A1; ligand concentration (+) RNA-Seq: 6 mM; higher = less ribozyme self-cleavage, higher mRNA level
condition_notes: with (6R,S)-folinic acid; ligand present: yes
Answers are plain numbers.

Example entries begin here.
GCUGUCACCGGUGCUUGGUACGUUAUAUUCAGCCGGUCUGAUGAGUCUUCGCCUAGACGAAACAGC [UCGCCU]
2.08
GCUGUCACCGGUGCUUGGUACGUUAUAUUCAGCCGGUCUGAUGAGUCUAUAGAAAGACGAAACAGC [AUAGAA]
1.98
GCUGUCACCGGUGCUUGGUACGUUAUAUUCAGCCGGUCUGAUGAGUCUGCUGCAAGACGAAACAGC [GCUGCA]
2.03
GCUGUCACCGGUGCUUGGUACGUUAUAUUCAGCCGGUCUGAUGAGUCUUCAGCCAGACGAAACAGC [UCAGCC]
1.99

Please report normalized RNA/DNA level with ligand (log10) for every entry that follows.
1. GCUGUCACCGGUGCUUGGUACGUUAUAUUCAGCCGGUCUGAUGAGUCUGUUCAAAGACGAAACAGC [GUUCAA]
2. GCUGUCACCGGUGCUUGGUACGUUAUAUUCAGCCGGUCUGAUGAGUCUGAGUAGAGACGAAACAGC [GAGUAG]
3. GCUGUCACCGGUGCUUGGUACGUUAUAUUCAGCCGGUCUGAUGAGUCUAAGUACAGACGAAACAGC [AAGUAC]
4. GCUGUCACCGGUGCUUGGUACGUUAUAUUCAGCCGGUCUGAUGAGUCUAGUAUGAGACGAAACAGC [AGUAUG]
5. GCUGUCACCGGUGCUUGGUACGUUAUAUUCAGCCGGUCUGAUGAGUCUGAUGUCAGACGAAACAGC [GAUGUC]

Result:
[1.98, 1.99, 2.03, 1.99, 1.99]
